Listing of entries alongside the reported pIC50.
Biological target: Vascular cell adhesion protein 1 (Homo sapiens)
Sequence (P19320 whole entry): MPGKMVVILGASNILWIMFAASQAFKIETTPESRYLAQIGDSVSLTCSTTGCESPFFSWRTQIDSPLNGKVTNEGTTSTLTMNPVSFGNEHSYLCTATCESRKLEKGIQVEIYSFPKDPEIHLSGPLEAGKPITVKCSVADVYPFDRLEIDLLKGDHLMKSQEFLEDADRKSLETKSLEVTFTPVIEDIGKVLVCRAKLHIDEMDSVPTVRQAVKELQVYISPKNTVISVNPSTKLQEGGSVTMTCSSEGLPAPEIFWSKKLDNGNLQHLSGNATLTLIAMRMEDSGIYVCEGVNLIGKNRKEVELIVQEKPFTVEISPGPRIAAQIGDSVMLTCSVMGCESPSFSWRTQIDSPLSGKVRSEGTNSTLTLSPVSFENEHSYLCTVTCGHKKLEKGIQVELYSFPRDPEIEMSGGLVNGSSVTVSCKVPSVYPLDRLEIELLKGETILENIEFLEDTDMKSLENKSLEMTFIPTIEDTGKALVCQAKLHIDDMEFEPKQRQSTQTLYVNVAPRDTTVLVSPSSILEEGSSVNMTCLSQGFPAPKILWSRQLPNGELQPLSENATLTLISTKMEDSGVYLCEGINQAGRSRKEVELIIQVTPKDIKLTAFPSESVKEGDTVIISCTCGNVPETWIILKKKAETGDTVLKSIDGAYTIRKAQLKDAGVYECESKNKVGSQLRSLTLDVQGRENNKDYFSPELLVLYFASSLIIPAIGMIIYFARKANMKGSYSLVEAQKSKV
Assay: In vitro potency against TNF alpha induced expression of VCAM-1 on human vascular endothelial cells using CAM ELISA assay
pIC50: −log10 of the molar value.
OUTCOME_MEASURE: pIC50

Cc1ccc(Sc2cncc3sc(C(N)=O)cc23)c(C)c1 : 6.11
CCc1cc2c(Sc3nnc(N)s3)ncnc2s1 : 5.60
Cc1ccc(Sc2cncc3sc(C(=O)NN)cc23)cc1 : 4.34
NC(=O)c1cc2c(Sc3ccccn3)cncc2s1 : 4.19
CCc1cc2c(Cl)ncnc2s1 [4-Chloro-6-ethyl-thieno[2,3-d]pyrimidine] : 4.74

---

experiment: In vitro potency against TNF alpha induced expression of Selectin E on human vascular endothelial cells using CAM ELISA assay
Catalogue of IC50 values
OUTCOME_MEASURE: IC50 (nM)

NC(=O)c1cc2c(Sc3ccc(Cl)c(Cl)c3)cncc2s1 : 100
NC(=O)c1cc2c(Sc3ccc(C(F)(F)F)cc3)cncc2s1 : 44
NC(=O)c1cc2c(Sc3ccccn3)cncc2s1 : 660
CCc1cc2c(Sc3nnc(N)s3)ncnc2s1 [GNF-Pf-1931] : 3000
Cc1ccc(Sc2cncc3sccc23)cc1 [4-p-Tolylsulfanyl-thieno[2,3-c]pyridine] : 1700
Cc1cccc(Sc2cncc3sc(C(N)=O)cc23)c1 : 45
CCc1cc2c(SCc3ccccc3)ncnc2s1 : 95000
Cc1ccc(Sc2cncc3sc(C(N)=O)cc23)c(C)c1 : 43
Cc1ccc(Sc2ccnc3sc(C(N)=O)cc23)cc1 : 16000
Cc1ccc(Sc2cncc3sc(C(N)=S)cc23)cc1 : 150
CCc1cc2c(NCc3ccccc3)ncnc2s1 : 49000

---

Reported pIC50 values follow for various molecules
Biological target: Vascular cell adhesion protein 1 (Homo sapiens)
Sequence (P19320 whole entry): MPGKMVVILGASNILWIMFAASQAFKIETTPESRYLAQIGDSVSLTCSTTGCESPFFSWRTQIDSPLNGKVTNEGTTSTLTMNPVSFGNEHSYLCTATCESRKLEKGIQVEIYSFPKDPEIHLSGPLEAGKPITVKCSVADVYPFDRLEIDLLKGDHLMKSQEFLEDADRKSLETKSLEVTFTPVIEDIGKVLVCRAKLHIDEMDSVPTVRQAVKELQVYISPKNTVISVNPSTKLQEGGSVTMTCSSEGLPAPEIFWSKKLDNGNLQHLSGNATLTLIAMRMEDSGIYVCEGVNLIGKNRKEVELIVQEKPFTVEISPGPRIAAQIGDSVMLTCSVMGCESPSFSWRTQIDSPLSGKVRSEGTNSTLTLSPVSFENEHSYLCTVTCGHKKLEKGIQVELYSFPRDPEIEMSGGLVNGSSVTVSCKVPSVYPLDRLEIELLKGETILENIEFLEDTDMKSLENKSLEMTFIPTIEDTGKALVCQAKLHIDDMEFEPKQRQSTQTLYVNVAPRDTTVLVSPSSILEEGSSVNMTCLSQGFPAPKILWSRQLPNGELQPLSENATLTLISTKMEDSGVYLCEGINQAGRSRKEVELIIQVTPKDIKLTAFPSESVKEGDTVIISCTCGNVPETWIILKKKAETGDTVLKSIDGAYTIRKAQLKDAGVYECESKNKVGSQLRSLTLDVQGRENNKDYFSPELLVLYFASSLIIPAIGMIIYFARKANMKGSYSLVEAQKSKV
Assay: In vitro potency against TNF alpha induced expression of VCAM-1 on human vascular endothelial cells using CAM ELISA assay
pIC50: −log10 of the molar value.
OUTCOME_MEASURE: pIC50

CCc1cc2c(Sc3nnc(C)s3)ncnc2s1 : 5.46
CCc1cc2c(SCc3ccccc3)ncnc2s1 : 4.77
Cc1ccc(Sc2ccnc3sc(C(N)=O)cc23)cc1 : 4.82
CCc1cc2c(NCc3ccccc3)ncnc2s1 : 4.23
Cc1ccc(Sc2cncc3sccc23)cc1 [4-p-Tolylsulfanyl-thieno[2,3-c]pyridine] : 5.68
Cc1ccc(Sc2cncc3sc(C(N)=S)cc23)cc1 : 4.72

---

Property: IC50; scope: individual compounds
target: Intercellular adhesion molecule 1 (Homo sapiens); assay: In vitro potency against TNF alpha induced expression of intercellular adhesion molecule-1 on human vascular endothelial cells using CAM ELISA assay
Sequence (P05362 whole entry): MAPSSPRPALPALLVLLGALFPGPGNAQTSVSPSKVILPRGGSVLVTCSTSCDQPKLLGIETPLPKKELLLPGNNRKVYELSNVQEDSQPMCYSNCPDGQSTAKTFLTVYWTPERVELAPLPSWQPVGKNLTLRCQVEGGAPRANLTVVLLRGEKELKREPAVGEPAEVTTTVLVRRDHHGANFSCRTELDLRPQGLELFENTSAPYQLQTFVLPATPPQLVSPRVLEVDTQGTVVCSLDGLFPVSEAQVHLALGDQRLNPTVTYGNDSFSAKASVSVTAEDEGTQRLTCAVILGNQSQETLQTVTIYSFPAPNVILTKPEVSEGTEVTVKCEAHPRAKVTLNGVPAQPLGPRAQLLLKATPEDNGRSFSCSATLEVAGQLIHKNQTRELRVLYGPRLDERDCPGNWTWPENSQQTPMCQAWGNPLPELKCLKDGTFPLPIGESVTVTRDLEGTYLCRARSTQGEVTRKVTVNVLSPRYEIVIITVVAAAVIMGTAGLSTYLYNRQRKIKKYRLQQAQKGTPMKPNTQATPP
OUTCOME_MEASURE: IC50 (nM)

Cc1ccc(Sc2cncc3sc(C(C)N=O)cc23)cc1 (configuration not stated) : 85
Cc1ccc(Sc2cncc3sc(CN=O)cc23)cc1 : 1900

---

test: In vitro potency against TNF alpha induced expression of intercellular adhesion molecule-1 on human vascular endothelial cells using CAM ELISA assay
Labelling field: enter true (1) if recorded IC50 is less than 2 µM. Enter false (0) if it equals or exceeds that cut-off.

CCc1cc2c(Cl)ncnc2s1 [4-Chloro-6-ethyl-thieno[2,3-d]pyrimidine] : false (0)
CCc1cc2c(SCc3ccccc3)ncnc2s1 : false (0)
CCc1cc2c(=O)[nH]cnc2s1 : false (0)
Cc1ccc(Sc2cncc3sc(C(N)=O)cc23)cc1C : true (1)
Cc1ccc(Sc2ccnc3sc(C(N)=O)cc23)cc1 : false (0)
Cc1ccc(Sc2cncc3sc(C(=O)NN)cc23)cc1 : true (1)
Cc1ccc(Sc2cncc3sccc23)cc1 [4-p-Tolylsulfanyl-thieno[2,3-c]pyridine] : true (1)

---

test: In vitro potency against TNF alpha induced expression of intercellular adhesion molecule-1 on human vascular endothelial cells using CAM ELISA assay
Quick reference: IC50 of the listed items.
OUTCOME_MEASURE: IC50 (nM)

CCc1cc2c(NCc3ccccc3)ncnc2s1 : 56000
Cc1ccc(Sc2cncc3sc(C(N)=O)cc23)c(C)c1 : 54
CCc1cc2c(Sc3nnc(C)s3)ncnc2s1 : 5000
Cc1cccc(Sc2cncc3sc(C(N)=O)cc23)c1 : 140
Cc1ccc(Sc2cncc3sc(C(N)=S)cc23)cc1 : 160

---

molecular target: Vascular cell adhesion protein 1 (Homo sapiens, UniProt P19320); assay: In vitro potency against TNF alpha induced expression of VCAM-1 on human vascular endothelial cells using CAM ELISA assay
OUTCOME_MEASURE: IC50

Cc1ccc(Sc2cncc3sc(C(N)=O)cc23)cc1C : > 1 µM
Cc1ccc(Sc2cncc3sc(C(N)=O)cc23)cc1 : > 1 µM
Cc1cccc(Sc2cncc3sc(C(N)=O)cc23)c1 : > 4 µM
Cc1ccc(Sc2cncc3sc(CN=O)cc23)cc1 : > 4 µM
CCc1cc2c(=O)[nH]cnc2s1 : > 100 µM

---

Here the recorded pIC50 is given for each entry.
Target: UniProt:P19320
Sequence (P19320 whole entry): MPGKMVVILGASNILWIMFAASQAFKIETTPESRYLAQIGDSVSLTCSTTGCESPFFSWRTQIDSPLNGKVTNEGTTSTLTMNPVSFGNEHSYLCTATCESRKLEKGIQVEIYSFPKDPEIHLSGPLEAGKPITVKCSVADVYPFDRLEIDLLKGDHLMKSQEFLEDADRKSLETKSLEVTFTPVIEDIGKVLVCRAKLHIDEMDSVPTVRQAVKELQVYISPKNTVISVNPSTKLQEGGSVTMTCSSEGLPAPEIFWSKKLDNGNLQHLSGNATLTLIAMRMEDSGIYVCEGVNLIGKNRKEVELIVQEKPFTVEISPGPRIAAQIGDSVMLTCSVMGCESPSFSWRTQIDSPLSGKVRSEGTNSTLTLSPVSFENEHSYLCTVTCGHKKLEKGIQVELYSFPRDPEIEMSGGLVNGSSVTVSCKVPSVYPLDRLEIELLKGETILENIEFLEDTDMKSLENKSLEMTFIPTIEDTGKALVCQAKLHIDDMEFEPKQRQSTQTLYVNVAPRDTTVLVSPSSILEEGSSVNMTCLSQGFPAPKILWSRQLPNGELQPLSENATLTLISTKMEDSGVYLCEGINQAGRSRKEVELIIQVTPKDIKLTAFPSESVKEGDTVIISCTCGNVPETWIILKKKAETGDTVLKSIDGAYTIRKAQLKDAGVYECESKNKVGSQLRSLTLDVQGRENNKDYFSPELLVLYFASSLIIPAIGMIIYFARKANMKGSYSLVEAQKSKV
Test: In vitro potency against TNF alpha induced expression of VCAM-1 on human vascular endothelial cells using CAM ELISA assay
pIC50: −log10 of the molar value.
OUTCOME_MEASURE: pIC50

Cc1ccc(Sc2cncc3sc(/C=N/OCC(=O)O)cc23)cc1 : < 5.40
Cc1occc1Sc1cncc2sc(C(N)=O)cc12 : < 6.00
Cc1ccc(Sc2cncc3sc(C(=O)NCCCN4CCOCC4)cc23)cc1 : < 5.40
NC(=O)c1cc2c(Sc3ccc(Cl)c(Cl)c3)cncc2s1 : < 6.00
NC(=O)c1cc2c(Sc3ccc(C(F)(F)F)cc3)cncc2s1 : < 7.00
Cc1ccc(Sc2cncc3sc(C(C)N=O)cc23)cc1 (stereo unspecified) : < 6.00
